Cited source for all entries: patent US6608111B1

test system: male Sprague-Dawley rats; assay: Example 4: effects on prostate and testis of male rats, 6 weeks; type: in vivo, rat; conditions: 0.1 ug/g of body weight once a day, mean ± SEM
Recorded Seminal Vesicle Weight as % Body Weight for the following compounds

COMPOUND: CC[C@@H](c1ccc2cc(O)ccc2c1)C(C)(C)C(=O)O [(−)-HAA]
MEASUREMENT NAME: Seminal Vesicle Weight as % Body Weight
DATA VALUE: 0.04 ± 0.00^1,4 % Body Weight
--
COMPOUND: CC[C@H]1c2ccc3cc(O)ccc3c2CC[C@@]1(C)C(=O)O [(+)-Z-BDDA, (+)-Z-bisdehydrodoisynolic acid]
MEASUREMENT NAME: Seminal Vesicle Weight as % Body Weight
DATA VALUE: 0.23 ± 0.12^2 % Body Weight
--
COMPOUND: CC[C@@H]1c2ccc3cc(O)ccc3c2CC[C@]1(C)C(=O)O [(−)-Z-BDDA, (−)-Z-bisdehydrodoisynolic acid]
MEASUREMENT NAME: Seminal Vesicle Weight as % Body Weight
DATA VALUE: 0.06 ± 0.02^4 % Body Weight
--
COMPOUND: CC[C@H](c1ccc2cc(O)ccc2c1)C(C)(C)C(=O)O [(+)-HAA]
MEASUREMENT NAME: Seminal Vesicle Weight as % Body Weight
DATA VALUE: 0.10 ± 0.04 % Body Weight

Then there is this compound:
Give the measured Seminal Vesicle Weight as % Body Weight for C[C@]12CCC3c4ccc(O)cc4CCC3[C@@H]1CCC2O (single isomer, unassigned; (+)) [estradiol, (+)-17β-estradiol, reference compound]
0.02 ± 0.00^1 % Body Weight

* * *

test system: male Sprague-Dawley rats; test: Example 4: effects on prostate and testis of male rats, 6 weeks; format: in vivo, rat; details: 0.1 ug/g of body weight once a day, mean ± SEM, n = 10
Below: a set of entries, each annotated with reported Body Weight (g).

Worked examples follow.
COMPOUND: CC[C@@H]1c2ccc3cc(O)ccc3c2CC[C@]1(C)C(=O)O [(−)-Z-BDDA, (−)-Z-bisdehydrodoisynolic acid]
Body Weight (g): 166.5 ± 4.5^1,2,4 g
//
COMPOUND: CC[C@@H](c1ccc2cc(O)ccc2c1)C(C)(C)C(=O)O [(−)-HAA]
Body Weight (g): 180.9 ± 4.5^1,2,4 g
//
COMPOUND: CC[C@H]1c2ccc3cc(O)ccc3c2CC[C@@]1(C)C(=O)O [(+)-Z-BDDA, (+)-Z-bisdehydrodoisynolic acid]
Body Weight (g): 234.8 ± 10.1^1,2 g
//
COMPOUND: CC[C@H](c1ccc2cc(O)ccc2c1)C(C)(C)C(=O)O [(+)-HAA]
Body Weight (g): 196.2 ± 5.2^1,4,5 g

Could you now look at the following compound, please?
State measured Body Weight (g) of the compound C[C@]12CCC3c4ccc(O)cc4CCC3[C@@H]1CCC2O (single isomer, unassigned; (+)) [estradiol, (+)-17β-estradiol, reference compound] with male Sprague-Dawley rats.
207.2 ± 4.6^1 g
